- SYSTEM TESTED: c20s (Homo sapiens, UniProt P20618+P28074)
- ASSAY INFO: Purified PI, IC50 against c20s
- Format: biochemical
- CONDITION LABEL: IC50 60 minute point c20s, Table H, 60 minute point, value marked * (Table G: did not converge)
MEASURE: IC50 (µM)
Numbers only, in µM.

Under c20s (Homo sapiens, UniProt P20618+P28074): report IC50 of `COC[C@H](NC(=O)c1cnc(C)s1)C(=O)N[C@@H](COC)C(=O)N[C@@H](Cc1ccccc1)/C(=N/OC)[C@@]1(C)CO1` .
2.56

* * *

- ASSAY INFO: Conversion of Prodrugs by Human Liver S9
- Assay type: in vitro ADME
Assign Human Liver S9 % Conversion @ 1 hour to each entry below.
One number for each entry, in %.

Observe how each entry below is paired with its result.
[[record]]
compound_structure_string = "COC[C@H](NC(=O)c1cnc(C)s1)C(=O)N[C@@H](COC)C(=O)N[C@@H](Cc1ccccc1)C(=O)[C@@](C)(CI)OC(=O)OCc1ccc(OC(C)=O)cc1"
measure = "Human Liver S9 % Conversion @ 1 hour"
observed = 28

[[record]]
compound_structure_string = "CCOC(=O)C(=O)O[C@](C)(CI)C(=O)[C@H](Cc1ccccc1)NC(=O)[C@H](COC)NC(=O)[C@H](COC)NC(=O)c1cnc(C)s1"
measure = "Human Liver S9 % Conversion @ 1 hour"
observed = 24


Give the reported value of Human Liver S9 % Conversion @ 1 hour for this record: `COC[C@H](NC(=O)c1cnc(C)s1)C(=O)N[C@@H](COC)C(=O)N[C@@H](Cc1ccccc1)C(=O)[C@@](C)(CI)OC(=O)COc1ccccc1`
7

* * *

- SYSTEM TESTED: c20s (Homo sapiens, UniProt P20618+P28074)
- ASSAY INFO: Purified PI, IC50 against c20s
- Format: biochemical
- CONDITION LABEL: Table G, value marked *: did not converge, read-out: IC50 Slope c20s
MEASURE: IC50
Enter the number, and then the unit.

Observe how each entry below is paired with its result.
[[record]]
compound_structure_string = "CC(C)C[C@H](NC(=O)[C@H](CCc1ccccc1)NC(=O)CN1CCOCC1)C(=O)N[C@@H](Cc1ccccc1)C(=O)N[C@@H](CC(C)C)C(=O)[C@](C)(O)COn1nnc2ccccc21"
measure = "IC50"
observed = "2470 nM"

[[record]]
compound_structure_string = "CC(C)C[C@H](NC(=O)[C@H](CCc1ccccc1)NC(=O)CN1CCOCC1)C(=O)N[C@@H](Cc1ccccc1)C(=O)N[C@@H](CC(C)C)/C(=N/O)[C@@]1(C)CO1"
measure = "IC50"
observed = "279 nM"


Required: IC50, one value per compound below.
1. CO/N=C(/[C@H](CC(C)C)NC(=O)[C@H](Cc1ccccc1)NC(=O)[C@H](CC(C)C)NC(=O)[C@H](CCc1ccccc1)NC(=O)CN1CCOCC1)[C@@]1(C)CO1
2. CC(=O)OC[C@@](C)(O)C(=O)[C@H](CC(C)C)NC(=O)[C@H](Cc1ccccc1)NC(=O)[C@H](CC(C)C)NC(=O)[C@H](CCc1ccccc1)NC(=O)CN1CCOCC1

1: 2610 nM; 2: 2440 nM

* * *

- SYSTEM TESTED: i20s (Homo sapiens, UniProt P20618+P28062)
- ASSAY INFO: Purified PI, IC50 against i20s
- Format: biochemical
- CONDITION LABEL: Table H, read-out: IC50 Slope i20s
MEASURE: IC50

[[record]]
compound_structure_string = "COC[C@H](NC(=O)c1cnc(C)s1)C(=O)N[C@@H](COC)C(=O)N[C@@H](Cc1ccccc1)C(=O)[C@](C)(O)COS(=O)(=O)c1ccc(C)cc1"
observed = "252 nM"


Attention now shifts to the item below.
Give the reported value of IC50 for this record: `COC[C@H](NC(=O)c1cnc(C)s1)C(=O)N[C@@H](COC)C(=O)N[C@@H](Cc1ccccc1)C(=O)[C@](C)(O)COS(C)(=O)=O`
179 nM

* * *

- SYSTEM TESTED: i20s (Homo sapiens, UniProt P20618+P28062)
- ASSAY INFO: Purified PI, IC50 against i20s
- Format: biochemical
- CONDITION LABEL: Table G, value marked *: did not converge, read-out: IC50 Slope i20s
Assign IC50 to each entry below.
Answers are plain numbers, in nM.

Observe how each entry below is paired with its result.
[[record]]
compound_structure_string = "CC(C)C[C@H](NC(=O)[C@H](CCc1ccccc1)NC(=O)CN1CCOCC1)C(=O)N[C@@H](Cc1ccccc1)C(=O)N[C@@H](CC(C)C)C(=O)[C@](C)(O)COn1nnc2ccccc21"
endpoint_unit = "nM"
observed = 2820

[[record]]
compound_structure_string = "CC(C)C[C@H](NC(=O)[C@H](CCc1ccccc1)NC(=O)CN1CCOCC1)C(=O)N[C@@H](Cc1ccccc1)C(=O)N[C@@H](CC(C)C)C(=O)[C@](C)(O)COP(=O)(c1ccccc1)c1ccccc1"
endpoint_unit = "nM"
observed = 2550

[[record]]
compound_structure_string = "CC(=O)N/N=C(/[C@H](CC(C)C)NC(=O)[C@H](Cc1ccccc1)NC(=O)[C@H](CC(C)C)NC(=O)[C@H](CCc1ccccc1)NC(=O)CN1CCOCC1)[C@@]1(C)CO1"
endpoint_unit = "nM"
observed = 2180

[[record]]
compound_structure_string = "COCCOCCOCCOCCC(=O)N/N=C(/[C@H](CC(C)C)NC(=O)[C@H](Cc1ccccc1)NC(=O)[C@H](CC(C)C)NC(=O)[C@H](CCc1ccccc1)NC(=O)CN1CCOCC1)[C@@]1(C)CO1"
endpoint_unit = "nM"
observed = 3240


Attention now shifts to the item below.
Give the reported value of IC50 for this record: `CC(C)C[C@H](NC(=O)[C@H](CCc1ccccc1)NC(=O)CN1CCOCC1)C(=O)N[C@@H](Cc1ccccc1)C(=O)N[C@@H](CC(C)C)/C(=N/O)[C@@]1(C)CO1`
2290

* * *

- SYSTEM TESTED: i20s (Homo sapiens, UniProt P20618+P28062)
- ASSAY INFO: Purified PI, IC50 against i20s
- Type: biochemical
- CONDITION LABEL: IC50 60 minute point i20s, Table H, 60 minute point
MEASURE: IC50 (nM)
Numbers only, in nM.

Required: IC50, one value per compound below.
1. COC[C@H](NC(=O)c1cnc(C)s1)C(=O)N[C@@H](COC)C(=O)N[C@@H](Cc1ccccc1)C(=O)[C@](C)(O)COS(=O)(=O)c1ccc(C)cc1
2. COC[C@H](NC(=O)c1cnc(C)s1)C(=O)N[C@@H](COC)C(=O)N[C@@H](Cc1ccccc1)C(=O)[C@](C)(O)COS(C)(=O)=O

637
614

* * *

- SYSTEM TESTED: c20s (Homo sapiens, UniProt P20618+P28074)
- ASSAY INFO: Purified PI, IC50 against c20s
- Assay type: biochemical
- CONDITION LABEL: Table G, read-out: IC50 Slope c20s
MEASURE: pIC50
Numbers only, as −log10 of the molar value.

Observe how each entry below is paired with its result.
[[record]]
compound_structure_string = "CC(C)C[C@H](NC(=O)[C@H](CCc1ccccc1)NC(=O)C[N+]1(COC(=O)C(C)(C)C)CCOCC1)C(=O)N[C@@H](Cc1ccccc1)C(=O)N[C@@H](CC(C)C)C(=O)[C@@]1(C)CO1"
measure = "pIC50"
observed = 8.05

[[record]]
compound_structure_string = "CC(C)C[C@H](NC(=O)[C@H](CCc1ccccc1)NC(=O)CN1CCOCC1)C(=O)N[C@@H](Cc1ccccc1)C(=O)N[C@@H](CC(C)C)C(=O)[C@](C)(O)COP(=O)(c1ccccc1)c1ccccc1"
measure = "pIC50"
observed = 5.57

[[record]]
compound_structure_string = "CC(C)C[C@H](NC(=O)[C@H](CCc1ccccc1)NC(=O)CN1CCOCC1)C(=O)N[C@@H](Cc1ccccc1)C(=O)N[C@@H](CC(C)C)C(=O)[C@](C)(O)CCl"
measure = "pIC50"
observed = 6.21

[[record]]
compound_structure_string = "CC(=O)N/N=C(/[C@H](CC(C)C)NC(=O)[C@H](Cc1ccccc1)NC(=O)[C@H](CC(C)C)NC(=O)[C@H](CCc1ccccc1)NC(=O)CN1CCOCC1)[C@@]1(C)CO1"
measure = "pIC50"
observed = 6.17

[[record]]
compound_structure_string = "CC(C)C[C@H](NC(=O)[C@H](CCc1ccccc1)NC(=O)CN1CCOCC1)C(=O)N[C@@H](Cc1ccccc1)C(=O)N[C@@H](CC(C)C)C(=O)[C@](C)(O)COS(C)(=O)=O"
measure = "pIC50"
observed = 7.42

[[record]]
compound_structure_string = "Cc1ccc(S(=O)(=O)OC[C@@](C)(O)C(=O)[C@H](CC(C)C)NC(=O)[C@H](Cc2ccccc2)NC(=O)[C@H](CC(C)C)NC(=O)[C@H](CCc2ccccc2)NC(=O)CN2CCOCC2)cc1"
measure = "pIC50"
observed = 7.13


Attention now shifts to the item below.
Give the reported value of pIC50 for this record: `CC(C)C[C@H](NC(=O)[C@H](CCc1ccccc1)NC(=O)CN1CCOCC1)C(=O)N[C@@H](Cc1ccccc1)C(=O)N[C@@H](CC(C)C)/C(=N/OCc1ccccc1)[C@@]1(C)CO1`
6.27
